Cited source: the Immune Epitope Database (IEDB)

- experimental_system: HLA-A*02:12
- test_description: IEDB peptide-MHC binding, purified MHC/competitive/fluorescence; filed as Kd, often an IC50 or EC50 that approximates it; bounds were set here for any values at or beyond the usual limits of such assays
- applied_conditions: source organism: Burkholderia mallei NCTC 10229
reported_metric: Kd

Q. Which Kd reading was recorded for the sequence `RTFGQPLFF` ?
A. ≥ 20 µM

---

- experimental_system: HLA-B*08:02
- test_description: IEDB peptide-MHC binding, purified MHC/direct/fluorescence; filed as Kd, often an IC50 or EC50 that approximates it; bounds were set here for any values at or beyond the usual limits of such assays
- applied_conditions: source organism: Influenza A virus(A/swine/Shandong/fZC/2003(H9N2))
reported_metric: Kd

Q. Which Kd reading was recorded for the sequence `IAGFIEGGW` ?
A. ≥ 20 µM

---

- experimental_system: HLA-A*69:01
- test_description: IEDB peptide-MHC binding, purified MHC/direct/fluorescence; filed as Kd, often an IC50 or EC50 that approximates it; bounds were set here for any values at or beyond the usual limits of such assays
- applied_conditions: source organism: Marburg virus - Musoke, Kenya, 1980
reported_metric: pKd
Please express pKd as -log10 of the molar concentration.

Q. Which pKd reading was recorded for the sequence `ALLTGSYTI` ?
A. 5.18

---

- experimental_system: HLA-A*24:02
- test_description: IEDB peptide-MHC binding, purified MHC/competitive/radioactivity; filed as Kd, often an IC50 or EC50 that approximates it; bounds were set here for any values at or beyond the usual limits of such assays
- applied_conditions: source organism: SARS coronavirus Tor2
API: label(entry) gives MET if the entry's Kd is strictly smaller than 2000 nM; on equality or larger values it gives NOT MET.

Q. Hi there! Is Kd for `AYATAQEAY` below 2000 nM, do you know?
A. NOT MET

Q. Field entry: `LYLYALIYFL`
A. MET

Q. Field entry: `DSSQGSEYDY`
A. NOT MET

Q. Field entry: `AYMLFTKFFY`
A. MET

Q. Field entry: `SYEHQTPFEI`
A. MET

Q. Field entry: `TQDLFLPFY`
A. NOT MET

***
Q. Hi there! Is Kd for `MYLKLRSETL` below 2000 nM, do you know?
A. MET

Q. Field entry: `TCDWTNAGDY`
A. NOT MET

Q. Field entry: `FMMSRRRLL`
A. MET

---

- experimental_system: HLA-B*08:03
- test_description: IEDB peptide-MHC binding, purified MHC/direct/fluorescence; filed as Kd, often an IC50 or EC50 that approximates it; bounds were set here for any values at or beyond the usual limits of such assays
- applied_conditions: source organism: Bacillus cereus 03BB108
reported_metric: Kd (nM)
Value expressed in nM; do not type the unit.

Q. Which Kd reading was recorded for the sequence `KVQEWYLSY` ?
A. 324

---

- experimental_system: HLA-A*02:16
- test_description: IEDB peptide-MHC binding, purified MHC/competitive/fluorescence; filed as Kd, often an IC50 or EC50 that approximates it; bounds were set here for any values at or beyond the usual limits of such assays
- applied_conditions: source organism: Pseudomonas sp. MIS38
reported_metric: pKd
Please express pKd as -log10 of the molar concentration.

Q. Which pKd reading was recorded for the sequence `YMLKDSAPT` ?
A. 9.30

---

- experimental_system: HLA-B*18:01
- test_description: IEDB peptide-MHC binding, purified MHC/competitive/fluorescence; filed as Kd, often an IC50 or EC50 that approximates it; bounds were set here for any values at or beyond the usual limits of such assays
- applied_conditions: source organism: Four Corners hantavirus
pKd: −log10 of the molar value.
reported_metric: pKd

Q. Provide the documented pKd with HLA-B*18:01 as the system for `KARNIISPV`
A. ≤ 4.70

---

- experimental_system: HLA-A*01:01
- test_description: IEDB peptide-MHC binding, purified MHC/competitive/fluorescence; bounds were set here for any values at or beyond the usual limits of such assays
- applied_conditions: source organism: Gorilla gorilla gorilla
pIC50: −log10 of the molar value.
reported_metric: pIC50

Q. Which pIC50 reading was recorded for the sequence `RYSHWTKL` ?
A. ≤ 4.70

---

- experimental_system: HLA-B*15:09
- test_description: IEDB peptide-MHC binding, purified MHC/direct/fluorescence; filed as Kd, often an IC50 or EC50 that approximates it; bounds were set here for any values at or beyond the usual limits of such assays
- applied_conditions: source organism: Giardia lamblia ATCC 50803
reported_metric: Kd

Q. Which Kd reading was recorded for the sequence `YIASIFMPR` ?
A. ≥ 20 µM

---

- experimental_system: HLA-B*53:01
- test_description: IEDB peptide-MHC binding, purified MHC/competitive/radioactivity; filed as Kd, often an IC50 or EC50 that approximates it; bounds were set here for any values at or beyond the usual limits of such assays
- applied_conditions: source organism: Hepacivirus hominis
reported_metric: Kd (µM)
Value expressed in µM; do not type the unit.

Q. Which Kd reading was recorded for the sequence `RPALVFDITK` ?
A. 18.9

---

- experimental_system: HLA-A*02:16
- test_description: IEDB peptide-MHC binding, purified MHC/competitive/fluorescence; filed as Kd, often an IC50 or EC50 that approximates it; bounds were set here for any values at or beyond the usual limits of such assays
- applied_conditions: source organism: Cryptosporidium parvum Iowa II
reported_metric: Kd (nM)
Value expressed in nM; do not type the unit.

Q. Which Kd reading was recorded for the sequence `LTAPCDIYV` ?
A. 0.5

---

- experimental_system: HLA-A*29:02
- test_description: IEDB peptide-MHC binding, purified MHC/competitive/fluorescence; filed as Kd, often an IC50 or EC50 that approximates it; bounds were set here for any values at or beyond the usual limits of such assays
- applied_conditions: source organism: Cryptosporidium parvum Iowa II
pKd: −log10 of the molar value.
reported_metric: pKd

Q. Which pKd reading was recorded for the sequence `LTAPCDIYV` ?
A. ≤ 4.70

---

- experimental_system: HLA-B*45:06
- test_description: IEDB peptide-MHC binding, purified MHC/competitive/fluorescence; filed as Kd, often an IC50 or EC50 that approximates it; bounds were set here for any values at or beyond the usual limits of such assays
- applied_conditions: source organism: human gammaherpesvirus 4
reported_metric: pKd
Please express pKd as -log10 of the molar concentration.

Q. Which pKd reading was recorded for the sequence `SQAAFGLPI` ?
A. 6.22

---

- experimental_system: HLA-B*18:01
- test_description: IEDB peptide-MHC binding, purified MHC/competitive/fluorescence; filed as Kd, often an IC50 or EC50 that approximates it; bounds were set here for any values at or beyond the usual limits of such assays
- applied_conditions: source organism: Vaccinia virus WR
reported_metric: Kd

Q. Which Kd reading was recorded for the sequence `IHIPGDTLF` ?
A. ≥ 20 µM

---

- experimental_system: HLA-C*14:02
- test_description: IEDB peptide-MHC binding, purified MHC/competitive/fluorescence; filed as Kd, often an IC50 or EC50 that approximates it; bounds were set here for any values at or beyond the usual limits of such assays
- applied_conditions: source organism: Homo sapiens
reported_metric: Kd
Returns: string containing the number followed by the unit.

Q. Which Kd reading was recorded for the sequence `RLPKDFVDL` ?
A. 0.112 µM

---

- experimental_system: HLA-B*57:01
- test_description: IEDB peptide-MHC binding, purified MHC/direct/fluorescence; filed as Kd, often an IC50 or EC50 that approximates it; bounds were set here for any values at or beyond the usual limits of such assays
- applied_conditions: source organism: Cryptosporidium parvum Iowa II
pKd: −log10 of the molar value.
reported_metric: pKd

Q. Which pKd reading was recorded for the sequence `LPWFLDTTI` ?
A. ≤ 4.70

---

- experimental_system: HLA-C*05:01
- test_description: IEDB peptide-MHC binding, purified MHC/direct/fluorescence; filed as Kd, often an IC50 or EC50 that approximates it; bounds were set here for any values at or beyond the usual limits of such assays
- applied_conditions: source organism: Influenza A virus (A/Kayano/57(H2N2))
pKd: −log10 of the molar value.
reported_metric: pKd

Q. Which pKd reading was recorded for the sequence `LPFHNVHPL` ?
A. ≤ 4.70

---

- experimental_system: HLA-B*08:02
- test_description: IEDB peptide-MHC binding, purified MHC/direct/fluorescence; filed as Kd, often an IC50 or EC50 that approximates it; bounds were set here for any values at or beyond the usual limits of such assays
- applied_conditions: source organism: Influenza A virus H3N2
reported_metric: Kd

Q. Provide the documented Kd with HLA-B*08:02 as the system for `EKFFPSSSY`
A. ≥ 20 µM

---

- experimental_system: HLA-A*31:01
- test_description: IEDB peptide-MHC binding, purified MHC/direct/fluorescence; filed as Kd, often an IC50 or EC50 that approximates it; bounds were set here for any values at or beyond the usual limits of such assays
- applied_conditions: source organism: Corynebacterium glutamicum
reported_metric: Kd

Q. Which Kd reading was recorded for the sequence `VHDREGNEV` ?
A. ≥ 20 µM
